# System Tested: human B1R receptor (bradykinin 1 receptor) (Homo sapiens, UniProt P46663)
# Construct: host or cells: CHO K1 cells (hB1R cells)
# Sequence (P46663 whole entry): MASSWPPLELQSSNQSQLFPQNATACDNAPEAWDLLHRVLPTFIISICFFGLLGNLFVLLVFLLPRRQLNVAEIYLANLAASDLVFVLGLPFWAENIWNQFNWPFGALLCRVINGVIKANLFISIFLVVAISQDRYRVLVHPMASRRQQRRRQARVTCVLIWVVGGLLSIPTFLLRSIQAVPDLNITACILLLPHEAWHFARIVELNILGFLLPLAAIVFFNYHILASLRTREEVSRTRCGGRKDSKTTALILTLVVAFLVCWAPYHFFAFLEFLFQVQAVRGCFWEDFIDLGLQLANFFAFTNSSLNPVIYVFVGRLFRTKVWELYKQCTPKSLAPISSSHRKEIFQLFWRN
# Assay Procedure: FLIPR Ca2+ assay (Fluo-4) on CHO K1 cells stably transfected with the human B1R gene; % activation and % inhibition at 10 μM
# Assay type: cell-based
# Run Parameters: CHO-K1, test substance 10 μM; CHO K1 hB1R cells; Ca2+ inflow after 0.5 nM Lys-Des-Arg9-bradykinin; read-out: B1R antagonism, human [10 μM] % inhibition
So I've got a bunch of molecules here, and I need their inhibition at 10 µM values.
Answers are plain numbers, in %.

Reference set, count: 2
O=C(COCC1CCCN1S(=O)(=O)c1c(Cl)cc(Cl)cc1Cl)N1CCC(O)(c2cccnc2)CC1 (centres unmarked) [Example 204] : 104
O=C(COCC1CCCCN1S(=O)(=O)c1c(Cl)cc(C(F)(F)F)cc1Cl)N1CCC(O)(Cc2ccccc2)CC1 (centres unmarked) [Example 163] : 46.1

Each molecule below has a reported value. Please supply its inhibition at 10 µM.
1. Cc1cc(C)c(S(=O)(=O)N2Cc3ccccc3CC2COCC(=O)N2CCC(O)(c3ccccc3)CC2)c(C)c1 (centres unmarked) [Example 101]
2. O=C(COCC1CCCCN1S(=O)(=O)c1cc(Cl)sc1Cl)N1CCC(O)(c2cccnc2)CC1 (centres unmarked) [Example 229]
3. COc1cc(C)c(S(=O)(=O)N(CCOCC(=O)N2CCC(O)(c3ccc(Cl)cc3)CC2)CC(C)C)c(C)c1C [Example 209]

Solution:
1. 102
2. 65.5
3. 105

Each molecule below has a reported value. Please supply its inhibition at 10 µM.
1. O=C(COCC1CCCN1S(=O)(=O)c1cc(Cl)sc1Cl)N1CCC(O)(c2cccc(C(F)(F)F)c2)CC1 (centres unmarked) [Example 227]
2. O=C(COCC1Cc2ccccc2CN1S(=O)(=O)c1ccc(F)cc1)N1CCC(O)(c2ccccn2)CC1 (centres unmarked) [Example 72]
3. CN(CCOCC(=O)N1CCC(O)(c2ccccn2)CC1)S(=O)(=O)c1cc(F)cc(F)c1 [Example 70]
4. CN(CCOCC(=O)N1CCC(O)(c2ccccn2)CC1)S(=O)(=O)c1ccc(OC(F)(F)F)cc1 [Example 20]

Solution:
[7.61, 3.33, 7.12, 22.2]

Each molecule below has a reported value. Please supply its inhibition at 10 µM.
1. COc1cc(C)c(S(=O)(=O)N2CCCCC2COCCC(=O)N2CCC(O)(c3ccc(Br)cc3)CC2)c(C)c1 (centres unmarked) [Example 182]
2. O=C(COCC1CCc2ccccc2N1S(=O)(=O)c1ccc(Cl)c(Cl)c1)N1CCC(O)(c2ccncc2)CC1 (centres unmarked) [Example 147]

Solution:
[80, 53.9]
